This listing pairs compounds with measured MIC90.
- System: Staphylococcus aureus
- Assay Explanation: Antibacterial activity against vancomycin-intermediate methicillin-resistant Staphylococcus aureus
- Format: functional

See these solved cases before continuing.
| Smiles Repr | Measured Metric | Measured |
| --- | --- | --- |
| CC(=O)NC[C@H]1CN(c2ccc(N3Cc4cn(C)nc4C3)c(F)c2)C(=O)O1 | MIC90 | 2 µg/mL |
| CN[C@H](CC(C)C)C(=O)N[C@H]1C(=O)N[C@@H](CC(N)=O)C(=O)N[C@H]2C(=O)N[C@H]3C(=O)N[C@H](C(=O)N[C@H](C(=O)O)c4cc(O)cc(O)c4-c4cc3ccc4O)[C@H](O)c3ccc(c(Cl)c3)Oc3cc2cc(c3O[C@@H]2O[C@H](CO)[C@@H](O)[C@H](O)[C@H]2O[C@H]2C[C@](C)(N)[C@H](O)[C@H](C)O2)Oc2ccc(cc2Cl)[C@H]1O | MIC90 | 8 µg/mL |
| Cc1onc(-c2ccccc2)c1C(=O)N[C@@H]1C(=O)N2[C@@H]1SC(C)(C)[C@@H]2C(=O)O | MIC90 | > 32 µg/mL |

Consider the record given below.
In: Sample CC(=O)NC[C@H]1CN(c2ccc(N3CCOCC3)c(F)c2)C(=O)O1 — what was its MIC90?
Out: 4 µg/mL

###

MIC50 for assorted compounds
- System: Staphylococcus aureus
- Assay Explanation: Antibacterial activity against vancomycin-intermediate methicillin-resistant Staphylococcus aureus
- Type: functional
A number alone suffices; assume µg/mL.

Recorded results for 2 compounds are shown here.
| Compound | Target Desc | Measured Metric | Measured |
| --- | --- | --- | --- |
| CC(=O)NC[C@H]1CN(c2ccc(N3Cc4cn(C)nc4C3)c(F)c2)C(=O)O1 | Staphylococcus aureus | MIC50 | 0.5 |
| CC(=O)NC[C@H]1CN(c2ccc(N3CCOCC3)c(F)c2)C(=O)O1 [LINEZOLID] | Staphylococcus aureus | MIC50 | 1 |

Kindly review the next compound as well.
In: Identify the measured MIC50 of CN[C@H](CC(C)C)C(=O)N[C@H]1C(=O)N[C@@H](CC(N)=O)C(=O)N[C@H]2C(=O)N[C@H]3C(=O)N[C@H](C(=O)N[C@H](C(=O)O)c4cc(O)cc(O)c4-c4cc3ccc4O)[C@H](O)c3ccc(c(Cl)c3)Oc3cc2cc(c3O[C@@H]2O[C@H](CO)[C@@H](O)[C@H](O)[C@H]2O[C@H]2C[C@](C)(N)[C@H](O)[C@H](C)O2)Oc2ccc(cc2Cl)[C@H]1O [VANCOMYCIN] for Staphylococcus aureus.
Out: 4

###

- System: Staphylococcus
- Assay Explanation: Antibacterial activity against methicillin-susceptible coagulase-negative staphylococci
- Format: functional
As shown below, each of these molecules has a reported MIC50 value.
Quick reminder: number only, in µg/mL, skip the unit.

Some molecules with known MIC50 results, for comparison:
| Smiles Repr | MIC50, µg/mL |
| --- | --- |
| CN[C@H](CC(C)C)C(=O)N[C@H]1C(=O)N[C@@H](CC(N)=O)C(=O)N[C@H]2C(=O)N[C@H]3C(=O)N[C@H](C(=O)N[C@H](C(=O)O)c4cc(O)cc(O)c4-c4cc3ccc4O)[C@H](O)c3ccc(c(Cl)c3)Oc3cc2cc(c3O[C@@H]2O[C@H](CO)[C@@H](O)[C@H](O)[C@H]2O[C@H]2C[C@](C)(N)[C@H](O)[C@H](C)O2)Oc2ccc(cc2Cl)[C@H]1O | 2 |
| CC(=O)NC[C@H]1CN(c2ccc(N3CCOCC3)c(F)c2)C(=O)O1 | 1 |
| Cc1onc(-c2ccccc2)c1C(=O)N[C@@H]1C(=O)N2[C@@H]1SC(C)(C)[C@@H]2C(=O)O | 0.12 |

Please look at the following molecule next.
In: Which MIC50 value belongs to CC(=O)NC[C@H]1CN(c2ccc(N3Cc4cn(C)nc4C3)c(F)c2)C(=O)O1 ?
Out: 0.5

###

- System: Staphylococcus aureus
- Assay Explanation: Antibacterial activity against methicillin-resistant Staphylococcus aureus
- Format: functional
This section presents molecules with their documented MIC90 values.
Express it in µg/mL; write the number only.

Study these solved cases before continuing.
| Molecule | Target Desc | Unit Info | Measured |
| --- | --- | --- | --- |
| CN[C@H](CC(C)C)C(=O)N[C@H]1C(=O)N[C@@H](CC(N)=O)C(=O)N[C@H]2C(=O)N[C@H]3C(=O)N[C@H](C(=O)N[C@H](C(=O)O)c4cc(O)cc(O)c4-c4cc3ccc4O)[C@H](O)c3ccc(c(Cl)c3)Oc3cc2cc(c3O[C@@H]2O[C@H](CO)[C@@H](O)[C@H](O)[C@H]2O[C@H]2C[C@](C)(N)[C@H](O)[C@H](C)O2)Oc2ccc(cc2Cl)[C@H]1O [VANCOMYCIN] | Staphylococcus aureus | µg/mL | 4 |
| CC(=O)NC[C@H]1CN(c2ccc(N3Cc4cn(C)nc4C3)c(F)c2)C(=O)O1 | Staphylococcus aureus | µg/mL | 2 |

Now examine the next entry.
In: Reported MIC90 for CC(=O)NC[C@H]1CN(c2ccc(N3CCOCC3)c(F)c2)C(=O)O1 [LINEZOLID] : what is it?
Out: 4
